# Tested on: PIK3CA(H1047L)
# APPLIED CONDITIONS: Compound Concentration (nM):1000;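 further: KINOMEscan scanMAX binding as percent activity remaining versus control; lower means stronger binding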
The entries below come with measured Percent Control values attached.
ENDPOINT: Percent Control (%)

INSERT INTO results (compound, endpoint, reading) VALUES
  ('COc1cc2ncnc(Nc3ccc4c(cnn4Cc4ccccc4)c3)c2cc1OC.Cl [GW282449A]', 'Percent Control', 100),
  ('COc1cc(C=NNc2ncnc3c2cnn3-c2ccccc2)ccc1O [GW513184X]', 'Percent Control', 100),
  ('COc1ccc2[nH]c3c4[nH]c5ccc(OC)cc5c4c4c(c3c2c1)C(=O)NC4=O [GW296115X]', 'Percent Control', 74),
  ('Cl.O=C(Nc1ccc(Oc2ccc3[nH]c(NC(=O)c4ccccc4)nc3c2)cc1)Nc1cc(C(F)(F)F)ccc1F [GW709042A]', 'Percent Control', 100);

====

# Test system: LTK
# APPLIED CONDITIONS: Compound Concentration (nM):1000
ENDPOINT: Percent Control (%)

INSERT INTO assay_data (compound, reading) VALUES
  ('NS(=O)(=O)c1ccc(N/N=C2\C(=O)Nc3ccc(C(=O)NCCc4c[nH]cn4)cc32)cc1 [GW300660X]', 100),
  ('COc1cc(/C=N/Nc2ncnc3[nH]ncc23)ccc1O [GW578748X]', 100),
  ('Cl.O=C(Nc1ccc(Oc2ccc3[nH]c(NC(=O)c4ccccc4)nc3c2)cc1)Nc1cc(C(F)(F)F)ccc1F [GW709042A]', 9.5),
  ('CCS(=O)(=O)c1ccc(OC)c(Nc2ncc(-c3cccc(F)c3)o2)c1 [GW621970X]', 100);

====

# Tested on: LRRK2(G2019S)
# APPLIED CONDITIONS: Compound Concentration (nM):1000
ENDPOINT: Percent Control

INSERT INTO assay_data (compound, endpoint, reading) VALUES
  ('CCc1ccc(Oc2nccc(-c3c(-c4ccc(F)cc4)ncn3C3CCNCC3)n2)cc1', 'Percent Control', '83%'),
  ('C[C@@H](Oc1cc(-n2cnc3ccc(OC4CCN(C)CC4)cc32)sc1C(N)=O)c1ccccc1Cl [GSK579289A]', 'Percent Control', '75%'),
  ('Cl.c1ccc(Cc2nc3ccc(Nc4ncnc5ccccc45)cc3[nH]2)cc1 [GR269666A]', 'Percent Control', '100%'),
  ('COc1ccc2[nH]c3c4[nH]c5ccc(OC)cc5c4c4c(c3c2c1)C(=O)NC4=O [GW296115X]', 'Percent Control', '2.6%');

====

# Test system: MKK7
# Construct: gene MAP2K7
# APPLIED CONDITIONS: Compound Concentration (nM):1000
ENDPOINT: Percent Control (%)

INSERT INTO assay_data (compound, reading) VALUES
  ('COc1ccc2[nH]c3c4[nH]c5ccc(OC)cc5c4c4c(c3c2c1)C(=O)NC4=O [GW296115X]', 88),
  ('COc1cc(N2CCN(C(C)C)CC2)ccc1Nc1nc(Nc2ccc(F)cc2C(=O)NC[C@@H](O)CO)c2cc[nH]c2n1 [GSK1392956A]', 100),
  ('CC1=C(C(=O)Nc2ccc3[nH]ncc3c2)C(c2ccc(Cl)c(Cl)c2)CC(=O)N1 (centres unmarked) [GSK299115A]', 90),
  ('NS(=O)(=O)c1ccc(Nc2ncc(-c3ccccc3)o2)cc1 [GW572399X]', 100),
  ('COc1ccc2cc(-c3c(-c4ccncc4)nc(-c4ccc(S(C)(=O)=O)cc4C)n3C)ccc2c1', 89),
  ('Cl.O=S1CCN(Cc2ccc(-c3ccc4ncnc(Nc5ccc(OCc6ccccc6)c(F)c5)c4c3)o2)CC1 [GW576924A]', 51),
  ('CCn1c(-c2nonc2N)nc2c(C#CC(C)(C)O)nc(OCCNC)cc21.Cl', 100),
  ('C/C(Nc1ccc(S(N)(=O)=O)cc1)=C1/C(=O)Nc2ccccc21 [GW335962X]', 91),
  ('CN(C)CCNC(=O)Nc1ccc(N(C)c2ccnc(Nc3ccc(CS(C)(=O)=O)cc3)n2)cc1.Cl [GW830900A]', 100),
  ('NS(=O)(=O)c1ccc(N/N=C2\C(=O)Nc3ccc(C(=O)NCc4ccncc4)cc32)cc1 [GW300657X]', 93),
  ('COc1cccc(-n2ncc3c(N/N=C/c4ccncc4)ncnc32)c1 [GW784752X]', 100),
  ('NS(=O)(=O)c1ccc(N/N=C2\C(=O)Nc3ccc(C(=O)NCCc4c[nH]cn4)cc32)cc1 [GW300660X]', 100),
  ('NS(=O)(=O)c1ccc(N/N=C2\C(=O)Nc3ccc(Cl)cc32)cc1 [GW280670X]', 100),
  ('COc1ccccc1-c1cc(/C=C2\C(=O)Nc3ncc(Br)cc32)cc(Br)c1O [GW442130X]', 100),
  ('CN1CCN(C(=O)c2ccc(NC(=O)Nc3ccc(N(C)c4ccnc(Nc5ccc(CS(C)(=O)=O)cc5)n4)cc3)cc2)CC1.Cl [GW830263A]', 95),
  ('Cc1cc(O)cc(C)c1/C=C/c1cncc(C(N)=O)c1 [GW435821X]', 100),
  ('NS(=O)(=O)c1ccc(N/N=C2\C(=O)Nc3ccc(-c4cnco4)cc32)cc1', 93);

====

# Test system: MLCK
# Construct: gene MYLK3
# APPLIED CONDITIONS: Compound Concentration (nM):1000
ENDPOINT: Percent Control (%)

INSERT INTO measurements (compound, measured_on, quantity_unit, reading) VALUES
  ('Cc1cc(O)cc(C)c1/C=C/c1cncc(C(N)=O)c1 [GW435821X]', 'MLCK', '%', 100),
  ('Cl.O=C(O[C@H]1CN[C@H](C#Cc2cc3ncnc(Nc4ccc5c(cnn5Cc5ccccc5)c4)c3s2)C1)N1CCOCC1 [GSK200398A]', 'MLCK', '%', 100),
  ('CCS(=O)(=O)c1ccc(OC)c(Nc2ncc(-c3cccc(OC)c3)o2)c1 [GW580509X]', 'MLCK', '%', 100),
  ('Cl.c1ccc(Cc2nc3ccc(Nc4ncnc5ccccc45)cc3[nH]2)cc1 [GR269666A]', 'MLCK', '%', 100),
  ('COc1ccccc1-c1cc(/C=C2\C(=O)Nc3ncc(Br)cc32)cc(Br)c1O [GW442130X]', 'MLCK', '%', 100),
  ('COc1cc2ncn(-c3cc(O[C@H](C)c4ccccc4Cl)c(C(N)=O)s3)c2cc1OC [GSK237701A]', 'MLCK', '%', 97),
  ('CC1=C(C(=O)Nc2ccc3[nH]ncc3c2)C(c2ccc(Cl)c(Cl)c2)CC(=O)N1 (centres unmarked) [GSK299115A]', 'MLCK', '%', 99),
  ('CCc1ccc(Oc2nccc(-c3c(-c4ccc(F)cc4)ncn3C3CCNCC3)n2)cc1', 'MLCK', '%', 76);

====

# System: CDK2
# APPLIED CONDITIONS: Compound Concentration (nM):1000
The entries below come with measured Percent Control values attached.
ENDPOINT: Percent Control (%)

INSERT INTO measurements (molecule, measured_on, reading) VALUES
  ('NS(=O)(=O)c1ccc(N/N=C2\C(=O)Nc3ccc(-c4cnco4)cc32)cc1 [GW276655]', 'CDK2', 32),
  ('Cc1cc(O)cc(C)c1/C=C/c1cncc(C(N)=O)c1 [GW435821X]', 'CDK2', 100),
  ('O=C1Nc2ccc(C(=O)c3ccco3)cc2C1=Cc1cc(Cl)c(O)c(Cl)c1 [GW406108X]', 'CDK2', 100),
  ('CCS(=O)(=O)c1ccc(OC)c(Nc2ncc(-c3cccc(F)c3)o2)c1 [GW621970X]', 'CDK2', 100),
  ('COc1ccc(COc2ccc(Cc3cnc(N)nc3N)cc2OC)cc1 [GW632580X]', 'CDK2', 100),
  ('COc1ccccc1-c1cc(/C=C2\C(=O)Nc3ncc(Br)cc32)cc(Br)c1O [GW442130X]', 'CDK2', 89),
  ('CN1CCN(C(=O)c2ccc(NC(=O)Nc3ccc(N(C)c4ccnc(Nc5ccc(CS(C)(=O)=O)cc5)n4)cc3)cc2)CC1.Cl [GW830263A]', 'CDK2', 87),
  ('Cl.O=C(O[C@H]1CN[C@H](C#Cc2cc3ncnc(Nc4ccc5c(cnn5Cc5ccccc5)c4)c3s2)C1)N1CCOCC1 [GSK200398A]', 'CDK2', 97),
  ('COc1ccc2cc(-c3c(-c4ccncc4)nc(-c4ccc(S(C)(=O)=O)cc4C)n3C)ccc2c1 [SB-633825]', 'CDK2', 79),
  ('CN(C)c1cc2c(Nc3ccc4c(cnn4Cc4ccccc4)c3)ncnc2cn1 [GW282974X]', 'CDK2', 79),
  ('CCS(=O)(=O)c1ccc(OC)c(Nc2ncc(-c3cccc(OC)c3)o2)c1 [GW580509X]', 'CDK2', 100),
  ('O=C(Nc1n[nH]c2nc(-c3ccc(O)cc3)c(Br)cc12)C1CC1 [SB-725317]', 'CDK2', 51),
  ('NS(=O)(=O)c1ccc(N/N=C2\C(=O)Nc3ccc(C(=O)NCc4ccncc4)cc32)cc1 [GW300657X]', 'CDK2', 39),
  ('CCc1ccc(Oc2nccc(-c3c(-c4ccc(F)cc4)ncn3C3CCNCC3)n2)cc1 [SB-242719]', 'CDK2', 100),
  ('CC(C)COC(=O)c1ccc2c(c1)/C(=C/Nc1ccc(S(N)(=O)=O)cc1)C(=O)N2 [GW416981X]', 'CDK2', 15),
  ('COc1cc(/C=N/Nc2ncnc3[nH]ncc23)ccc1O [GW578748X]', 'CDK2', 100),
  ('CN(C)CCNC(=O)Nc1ccc(N(C)c2ccnc(Nc3ccc(CS(C)(=O)=O)cc3)n2)cc1.Cl [GW830900A]', 'CDK2', 98),
  ('CC1=C(C(=O)Nc2ccc3[nH]ncc3c2)C(c2ccc3ccccc3c2)CC(=O)N1 (stereo not shown) [GSK270822A]', 'CDK2', 100),
  ('COc1cc2ncnc(Nc3ccc4c(cnn4Cc4ccccc4)c3)c2cc1OC.Cl [GW282449A]', 'CDK2', 100);

From: paper PMC7826789
